Compiled from multiple publications: IC50 readings for Sphingosine 1-phosphate receptor 3 (Homo sapiens).

# compound, IC50
rows = [
    ("COc1ccc(CCOc2ccc(NC(=O)[C@@](C)(N)CO)cc2)cc1OC", "> 10000 nM"),
    ("CNC(=O)c1cc(NC(=O)[C@@](C)(N)COP(=O)(O)O)ccc1OCCc1ccc(-c2ccccc2)cc1", "1000 to 10000 nM"),
    ("C[C@](N)(COP(=O)(O)O)C(=O)Nc1ccc(C(C#N)CCc2ccc(-c3ccccc3)cc2)cc1 (some centres unmarked)", "> 10000 nM"),
    ("O=C(NC(Nc1ccc(Cl)cc1)C(=O)c1ccc2ccccc2c1)c1ccc(Br)cn1 (centres unmarked)", "31 nM"),
    ("CCCCCCCCc1ccc(OC2CN[C@H](CO)C2)cc1 (some centres unmarked)", "> 10000 nM"),
    ("COc1cccc(Oc2ccc(NC(=O)[C@@](C)(N)CO)cc2)c1", "50 nM"),
    ("CC(C)Cc1ccc(-c2nc(-c3ccc([C@@H](C)N[C@H]4C[C@@H](C(=O)O)C4)cc3)no2)cc1", "> 1000 nM"),
    ("C[C@](N)(COP(=O)(O)O)C(=O)Nc1ccc(OCCc2ccc(-c3ccccc3)cc2)c(C(F)(F)F)c1", "1000 to 10000 nM"),
]

###

Compiled from multiple publications: pIC50 readings for Sphingosine 1-phosphate receptor 3 (Homo sapiens).
pIC50: −log10 of the molar value.

# compound, pIC50
records = [
    ("C[C@](N)(COP(=O)(O)O)C(=O)Nc1ccc(OCCc2ccc(-c3ccccc3)cc2)c(C#N)c1", "5.00 to 6.00"),
    ("C[C@](N)(COP(=O)(O)O)C(=O)Nc1ccc(Oc2ccc3cc(-c4ccccc4)ccc3c2)cc1", "< 5.00"),
    ("C[C@](N)(CO)C(=O)Nc1ccc(Oc2ccccc2)cc1", 5.20),
    ("NC(CO)(CCc1ccc(CCCCCCCF)cc1)COP(=O)(O)O (stereo not shown)", 6.60),
    ("C[C@](N)(COP(=O)(O)O)c1nnc(-c2ccc(Sc3cccc(OCc4ccccc4)c3)c(C(F)(F)F)c2)s1", "< 5.00"),
    ("CCCCCCCN(C)C(=O)c1ccc(NC(=O)[C@@H](N)[C@@H](C)O)cc1", "< 5.00"),
    ("C[C@](N)(COc1ccccc1)C(=O)Nc1ccc(Oc2ccccc2)cc1", "< 5.00"),
]

###

Compiled from multiple publications: pIC50 readings for Sphingosine 1-phosphate receptor 3 (Homo sapiens, UniProt Q99500).
pIC50: −log10 of the molar value.

# compound, pIC50
rows = [
    ("C[C@](N)(COP(=O)(O)O)C(=O)Nc1ccc(Oc2ccc(-c3ccccc3)cc2)cc1", "6.00 to 7.00"),
    ("C[C@](N)(COP(=O)(O)O)c1ncc(-c2ccc(Sc3cccc(OCc4ccccc4)c3)c(C(F)(F)F)c2)[nH]1", "5.00 to 6.00"),
    ("C[C@](N)(CO)C(=O)Nc1ccc(OCCc2ccc(-c3cccs3)cc2)cc1", "< 6.00"),
    ("C[C@](N)(COP(=O)(O)O)C(=O)Nc1ccc(C(=O)NCc2ccc(-c3ccccc3)cc2)cc1", "< 5.00"),
    ("Cc1ccccc1-c1ccc(-c2nc(-c3ccc(CN(C)CCC(=O)O)c(F)c3)no2)cc1C(F)(F)F", "< 6.00"),
    ("CC1CCC(NC(NC(=O)c2ccc(Br)cc2)C(Cl)(Cl)Cl)CC1 (single isomer, unassigned)", 6.17),
    ("Cc1cc(NC(=O)[C@@](C)(N)COP(=O)(O)O)ccc1OCCc1ccc(-c2ccccc2)cc1", "5.00 to 6.00"),
    ("C[C@](N)(COP(=O)(O)O)C(=O)Nc1ccc(OCCc2ccc(-c3ccsc3)cc2)cc1", "6.00 to 7.00"),
    ("CN1CCc2c([nH]c3ccc(OCc4ccc(C5CCCC5)c(C(F)(F)F)c4)cc23)C1CC(=O)O (stereo not shown)", "< 6.00"),
    ("CCc1ccc(-c2ccc(CCOc3ccc(NC(=O)[C@@](C)(N)COP(=O)(O)O)cc3)cc2)cc1", "6.00 to 7.00"),
    ("CCCCCNC(=O)c1ccc(NC(=O)[C@@H](N)[C@@H](C)O)cc1", 6.80),
    ("C[C@](N)(COP(=O)(O)O)C(=O)Nc1ccc(OCCc2ccc(-c3ccccc3)cc2)c(Cl)c1", "6.00 to 7.00"),
    ("CCCCc1ccc(OC[C@](C)(N)C(=O)Nc2ccc(Oc3ccc(CCCC)cc3)cc2)cc1", 5.46),
    ("COc1ccc(CCOc2ccc(NC(=O)[C@@](C)(N)COP(=O)(O)O)cc2)cc1OC", "< 5.00"),
    ("C[C@](N)(CO)C(=O)Nc1ccc(-c2cccc(OCc3ccccc3)c2)cc1", 6.89),
    ("C[C@](N)(COP(=O)(O)O)C(=O)Nc1ccc(Oc2ccc(-c3ccc4c(c3)OCO4)cc2)cc1", "6.00 to 7.00"),
]

###

Compiled from multiple publications: pIC50 readings for Sphingosine 1-phosphate receptor 3 (Homo sapiens).
pIC50: −log10 of the molar value.

# compound, pIC50
records = [
    ("C[C@](N)(COP(=O)(O)O)C(=O)Nc1ccc(OCCCCc2ccc(-c3ccccc3)cc2)cc1", "7.00 to 12.00"),
    ("COC(=O)c1cc(NC(=O)[C@@](C)(N)COP(=O)(O)O)ccc1OCCc1ccc(-c2ccccc2)cc1", "< 5.00"),
    ("C[C@](N)(COP(=O)(O)O)c1ncc(-c2ccc(Sc3cccc(OCc4ccccc4)c3)cc2Cl)[nH]1", "6.00 to 7.00"),
    ("CCOc1ccc(-c2ccc(CCOc3ccc(NC(=O)[C@@](C)(N)COP(=O)(O)O)cc3)cc2)cc1", "5.00 to 6.00"),
    ("C[C@](N)(COP(=O)(O)O)C(=O)Nc1ccc(S(=O)(=O)CCc2ccc(-c3ccccc3)cc2)cc1", "< 5.00"),
    ("C[C@](N)(COP(=O)(O)O)c1nnc(-c2ccc(Sc3cccc(O)c3)cc2Cl)s1", "< 5.00"),
    ("OCc1ccc(-c2noc(-c3ccc(OCCF)c(C(F)(F)F)c3)n2)cc1", "< 6.00"),
    ("C[C@](N)(COP(=O)(O)O)C(=O)Nc1ccc(-c2cnn(Cc3ccccc3)c2)cc1", "< 5.00"),
    ("Cc1ccccc1-c1ccc(CCOc2ccc(NC(=O)[C@@](C)(N)CO)cc2)cc1", "< 5.00"),
    ("C[C@](N)(COP(=O)(O)O)C(=O)Nc1ccc(OCCc2ccc(-c3ccc(C(F)(F)F)cc3)cc2)cc1", "5.00 to 6.00"),
]
